# Tested on: DNA
# method description: Binding affinity to calf thymus DNA at 20 to 80 uM after 1.5 hrs by UV-vis spectrophotometric analysis
# Type: nucleic-acid assay
# experimental setup: Bos taurus
Active and inactive are the calls of the source. The calls are words filed in the database; no cut-off is given here.
measured quantity: Activity

1) CCOC(=O)/C(CC(=O)c1cccc2c1C(=O)c1ccccc1C2=O)=N\NC(=S)NCc1cccs1 :: Active
2) CCOC(=O)/C(CC(=O)c1cccc2c1C(=O)c1ccccc1C2=O)=N\NC(=S)NCc1ccco1 :: Active
3) CCCCNC(=S)N/N=C(/CC(=O)c1cccc2c1C(=O)c1ccccc1C2=O)C(=O)OCC :: Active
4) CCCCCCNC(=S)N/N=C(/CC(=O)c1cccc2c1C(=O)c1ccccc1C2=O)C(=O)OCC :: Active
5) CCOC(=O)/C(CC(=O)c1cccc2c1C(=O)c1ccccc1C2=O)=N\NC(=S)NCc1cccnc1 :: Active
6) CCOC(=O)/C(CC(=O)c1cccc2c1C(=O)c1ccccc1C2=O)=N\NC(=S)Nc1ccccc1 :: Active
7) CCOC(=O)/C(CC(=O)c1cccc2c1C(=O)c1ccccc1C2=O)=N\NC(=S)NC1CCCCC1 :: Active
8) CCOC(=O)/C(CC(=O)c1cccc2c1C(=O)c1ccccc1C2=O)=N\NC(=S)Nc1ccc(C)cc1 :: Active
9) CCOC(=O)/C(CC(=O)c1cccc2c1C(=O)c1ccccc1C2=O)=N/NC(N)=S :: Active

====

# System: Radical scavenging activity
# method description: Antioxidant activity assessed as DPPH radical scavenging activity after 30 mins by spectrophotometric analysis
# Type: functional
pIC50: −log10 of the molar value.
measured quantity: pIC50

1) CCCCCCNC(=S)N/N=C(/CC(=O)c1cccc2c1C(=O)c1ccccc1C2=O)C(=O)OCC :: 4.58
2) CCCCNC(=S)N/N=C(/CC(=O)c1cccc2c1C(=O)c1ccccc1C2=O)C(=O)OCC :: 4.59
3) CCOC(=O)/C(CC(=O)c1cccc2c1C(=O)c1ccccc1C2=O)=N\NC(=S)NCc1cccnc1 :: 4.33

====

# Tested on: HeLa
# method description: Cell cycle arrest in human HeLa cells assessed as accumulation at subG1 phase at IC50 after 24 hrs by propidium iodide staining-based FACS flow cytometric analysis (reference value: 9.10%)
# Type: functional
Active and inactive are the calls of the source. The calls are words filed in the database; no cut-off is given here.
measured quantity: Activity

1) CCCCNC(=S)N/N=C(/CC(=O)c1cccc2c1C(=O)c1ccccc1C2=O)C(=O)OCC :: Active
2) CCCCCCNC(=S)N/N=C(/CC(=O)c1cccc2c1C(=O)c1ccccc1C2=O)C(=O)OCC :: 25.02%
3) CCOC(=O)/C(CC(=O)c1cccc2c1C(=O)c1ccccc1C2=O)=N\NC(=S)NCc1ccco1 :: Active
4) CCOC(=O)/C(CC(=O)c1cccc2c1C(=O)c1ccccc1C2=O)=N\NC(=S)Nc1ccccc1 :: 11.21%
